Test system: MCF7
Test: Inhibitory activity against MCF-7 wt cell line using MTT assay (ER+,pgR+,wildtype p53)
Format: functional, cell-based
Settings: Homo sapiens
QUANTITY_NAME: pIC50
pIC50 here is simply -log10 of the concentration when that concentration is written in mol/L.

What value of pIC50 has been reported for the following compound? `c1ccc2c(c1)Nc1cccc3cc4[n+](c-2c13)CCC4` 6.82

What value of pIC50 has been reported for the following compound? `Cc1ccc2c(c1)-c1cccc3nc4ccccc4c(c13)N2` 6.74

What value of pIC50 has been reported for the following compound? `c1ccc2c(c1)Nc1cccc3ccnc-2c13` 6.08

What value of pIC50 has been reported for the following compound? `Clc1ccc2c(c1)-c1cccc3nc4ccccc4c(c13)N2` 5.78

What value of pIC50 has been reported for the following compound? `c1ccc2c(c1)Nc1c3ccccc3nc3cccc-2c13` 6.57

What value of pIC50 has been reported for the following compound? COc1cc([C@@H]2c3cc4c(cc3[C@@H](O[C@@H]3O[C@@H]5CO[C@@H](C)O[C@H]5[C@H](O)[C@H]3O)[C@H]3COC(=O)[C@H]23)OCO4)cc(OC)c1O [ETOPOSIDE] 7.07

What value of pIC50 has been reported for the following compound? `O=[N+]([O-])c1ccc2c(c1)Nc1c3ccccc3nc3cccc-2c13` 6.26

What value of pIC50 has been reported for the following compound? `N#CCCCc1cc2cccc3c2c(n1)-c1ccccc1N3` 5.42

What value of pIC50 has been reported for the following compound? `Nc1ccc2c(c1)Nc1c3ccccc3nc3cccc-2c13` 7.30

What value of pIC50 has been reported for the following compound? `N#CCCCc1cnc2c3c(cccc13)Nc1ccccc1-2` 6.57

What value of pIC50 has been reported for the following compound? `COc1cccc2c1C(=O)c1c(O)c3c(c(O)c1C2=O)C[C@@](O)(C(=O)CO)C[C@@H]3O[C@H]1C[C@H](N)[C@H](O)[C@H](C)O1` 9.00

What value of pIC50 has been reported for the following compound? `COc1cc(NS(C)(=O)=O)ccc1Nc1c2ccccc2nc2ccccc12` 7.12

###

Field: log10 of IC50. Provide a value for each of the molecules that follow.
System: A549
Assay: Inhibitory activity against A549 cell line using MTT assay(Wild type p53)
Type: functional, cell-based
Details: Homo sapiens
Heads up: the numbers are on a log10 scale; they represent IC50 in nM.

What value of log10 of IC50 has been reported for the following molecule? `COc1cc(NS(C)(=O)=O)ccc1Nc1c2ccccc2nc2ccccc12` 1.48

What value of log10 of IC50 has been reported for the following molecule? `c1ccc2c(c1)Nc1cccc3cc4[n+](c-2c13)CCC4` 2.20

What value of log10 of IC50 has been reported for the following molecule? `Clc1ccc2c(c1)-c1cccc3nc4ccccc4c(c13)N2` 3.85

What value of log10 of IC50 has been reported for the following molecule? `Nc1ccc2c(c1)Nc1c3ccccc3nc3cccc-2c13` 1.90

What value of log10 of IC50 has been reported for the following molecule? `c1ccc2c(c1)Nc1cccc3ccnc-2c13` 3.33

What value of log10 of IC50 has been reported for the following molecule? COc1cc([C@@H]2c3cc4c(cc3[C@@H](O[C@@H]3O[C@@H]5CO[C@@H](C)O[C@H]5[C@H](O)[C@H]3O)[C@H]3COC(=O)[C@H]23)OCO4)cc(OC)c1O [ETOPOSIDE] 2.20

What value of log10 of IC50 has been reported for the following molecule? `N#CCCCc1cc2cccc3c2c(n1)-c1ccccc1N3` 3.12

What value of log10 of IC50 has been reported for the following molecule? `Cc1ccc2c(c1)-c1cccc3nc4ccccc4c(c13)N2` 2.91

What value of log10 of IC50 has been reported for the following molecule? `N#CCCCc1cnc2c3c(cccc13)Nc1ccccc1-2` 3.41

What value of log10 of IC50 has been reported for the following molecule? `COc1cccc2c1C(=O)c1c(O)c3c(c(O)c1C2=O)C[C@@](O)(C(=O)CO)C[C@@H]3O[C@H]1C[C@H](N)[C@H](O)[C@H](C)O1` 0.60

What value of log10 of IC50 has been reported for the following molecule? `c1ccc2c(c1)Nc1c3ccccc3nc3cccc-2c13` 2.69
